B1: TSN (parent)
chain: AFVVYLETETLVTREAVTEILGIE

Variants of: B1
test: protein stability index of a GFP-peptide fusion (GPS, HEK-293T) (PSI 1-6); higher = more stable;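 note: lentivirally expressed fusions sorted by FACS into six bins by GFP to DsRed ratio, PSI derived from sequencing read proportions per bin multiplied by bin number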
reported_conditions: c terminus: a fixed tail appended
observed_property: protein stability index
One number for each entry.

Use the examples below as a reference point.
Return protein stability index for the following variant: V3M
1.97

Return protein stability index for the following variant: L21E
1.97

Return protein stability index for the following variant: V12T
4.69

Return protein stability index for the following variant: R14P
2.84

Alright, here's another variant for you.
Return protein stability index for the following variant: E15F
3.13

# credit: the supplement of paper PMC10567573
